src = ChEMBL document CHEMBL5365467

Parameter Cmax at 24 h: see the listing below.
Assay: in vivo
Conditions: Sprague-Dawley, rat, po, 5 mg/kg
Write it as a number; the unit ng/mL goes unstated.

Before answering, review these 4 worked examples.
compound: C[C@H]1CC2(CCN(c3ccc(C(=O)N4CCC(N5Cc6cc7c(cc6C5)C(=O)N(C5CCC(=O)NC5=O)C7=O)CC4)cc3)CC2)CN1c1ccc(C#N)c(Cl)c1 (some centres not stated)
propertyLabel: Cmax at 24 h
testValue: 410
//
compound: COC1(CN2Cc3cc4c(cc3C2)C(=O)N(C2CCC(=O)NC2=O)C4=O)CCN(C(=O)c2ccc(N3CCC4(CC3)C[C@H](C)N(c3ccc(C#N)c(Cl)c3)C4)cc2)CC1 (some centres not stated)
propertyLabel: Cmax at 24 h
testValue: 179
//
compound: C[C@H]1CC2(CCN(c3ccc(C(=O)N4CCC(CN5Cc6cc7c(cc6C5)C(=O)N(C5CCC(=O)NC5=O)C7=O)CC4)cc3)CC2)CN1c1ccc(C#N)c(Cl)c1 (some centres not stated)
propertyLabel: Cmax at 24 h
testValue: 871
//
compound: C[C@H]1CC2(CCN(c3ccc(C(=O)N4CC(CN5Cc6cc7c(cc6C5)C(=O)N(C5CCC(=O)NC5=O)C7=O)C4)cc3)CC2)CN1c1ccc(C#N)c(Cl)c1 (some centres not stated)
propertyLabel: Cmax at 24 h
testValue: 78

Sample C[C@H]1CC2(CCN(c3ccc(C(=O)N4CCC(F)(CN5Cc6cc7c(cc6C5)C(=O)N(C5CCC(=O)NC5=O)C7=O)CC4)cc3)CC2)CN1c1ccc(C#N)c(Cl)c1 (some centres not stated) — what was its Cmax at 24 h?
216

Tell me the measured Cmax at 24 h of C[C@H]1CC2(CCN(c3ccc(C(=O)N4CCC(C)(CN5Cc6cc7c(cc6C5)C(=O)N(C5CCC(=O)NC5=O)C7=O)CC4)cc3)CC2)CN1c1ccc(C#N)c(Cl)c1 (some centres not stated) , please.
539

What value of Cmax at 24 h has been reported for the following compound? C[C@H]1CC2(CCN(c3ccc(C(=O)N4CC(N5Cc6cc7c(cc6C5)C(=O)N(C5CCC(=O)NC5=O)C7=O)C4)cc3)CC2)CN1c1ccc(C#N)c(Cl)c1 (some centres not stated)
94
